test-target: thromboxane synthetase (Rattus norvegicus)
Construct: The platelets were isolated by centrifuging the PRP for 10 minutes; endogenous in cells; host or cells: washed platelets from arterial blood of Okamoto-Aoki spontaneously hypertensive rats (Taconic Farms, Germantown, N.Y.)
Sequence (P49430 whole entry): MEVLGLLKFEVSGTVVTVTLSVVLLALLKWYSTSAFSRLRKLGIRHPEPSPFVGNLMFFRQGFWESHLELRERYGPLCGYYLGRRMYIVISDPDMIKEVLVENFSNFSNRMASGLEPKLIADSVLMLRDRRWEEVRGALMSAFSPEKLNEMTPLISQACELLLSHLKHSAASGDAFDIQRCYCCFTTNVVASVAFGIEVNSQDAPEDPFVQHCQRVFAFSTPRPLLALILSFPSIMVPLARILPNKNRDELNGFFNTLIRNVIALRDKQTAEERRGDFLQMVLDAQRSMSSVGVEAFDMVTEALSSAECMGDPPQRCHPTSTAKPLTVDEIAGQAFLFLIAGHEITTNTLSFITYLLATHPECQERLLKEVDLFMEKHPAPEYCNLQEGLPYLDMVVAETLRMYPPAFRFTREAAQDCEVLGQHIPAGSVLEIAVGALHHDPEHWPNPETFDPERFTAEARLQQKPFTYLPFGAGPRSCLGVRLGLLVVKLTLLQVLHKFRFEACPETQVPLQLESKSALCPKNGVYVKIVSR
measurement-notes: inhibition of thromboxane (TX) formation in platelets (TXB2 by radioimmunoassay)
Assay type: cell-based, Okamoto-Aoki spontaneously hypertensive rats (SHR)
particulars: drug at 10^-4 M, 10 minutes at 37° C., washed SHR platelets, TXB2 RIA
readout: inhibition at 100 µM (%)

>>> test_value("O=C1c2cccc3cc([N+](=O)[O-])cc(c23)C(=O)N1CCCn1ccnc1-c1ccccc1")
89
>>> test_value("O=C1c2cccc3cccc(c23)C(=O)N1CCCCn1ccnc1")
96
>>> test_value("CC(CN1C(=O)c2cccc3cccc(c23)C1=O)Cn1ccnc1 (stereo not shown)")
99
>>> test_value("O=C1c2cccc3cccc(c23)C(=O)N1CCCCc1cccnc1")
98
>>> test_value("O=C1c2cccc3cccc(c23)C(=O)N1CCCCCCCCn1ccnc1")
98
>>> test_value("Cc1cn(CCCN2C(=O)c3cccc4cccc(c34)C2=O)cn1")
98
>>> test_value("O=C1c2cccc3cc([N+](=O)[O-])cc(c23)C(=O)N1CCCCCn1ccnc1")
98
>>> test_value("O=C1c2cccc3cc([N+](=O)[O-])cc(c23)C(=O)N1CCc1cccnc1")
94
>>> test_value("O=C1c2cccc3cccc(c23)C(=O)N1CCCn1cncn1")
96
>>> test_value("O=C1c2cccc3cc([N+](=O)[O-])cc(c23)C(=O)N1CCCCn1ccnc1")
97
